Target: T1, human ROR1 extracellular domain-Fc fusion (human, UniProt Q01973 30-406)
T1 construct: extracellular domain; also called hROR1; ROR1-hFc
Assay: SPR
Measure: kon (M⁻¹ s⁻¹)
Report the value in M⁻¹ s⁻¹ with no unit label.

Take a look at these entries with their results.
Binder	Scale Unit	kon
P3A1-P3A1-S-mal-vcMMAE (VNAR, chain 1 pos 265 (C-terminal Gly, written G): carboxyl amidated with cysteamine (intein cleavage); its thiol joined by thioether to maleimide MC vc PAB MMAE) TRVDQTPRTATKETGESLTINCVLTDTSYGLYSTSWFRKNPGTTDWERMSIGGRYVESVNKGAKSFSLRIKDLTVADSATYYCKAREARHPWLRQWYDGAGTVLTVNGGGGSGGGGSGGGGSGGGGSGGGGSTRVDQTPRTATKETGESLTINCVLTDTSYGLYSTSWFRKNPGTTDWERMSIGGRYVESVNKGAKSFSLRIKDLTVADSATYYCKAREARHPWLRQWYDGAGTVLTVNQASGAHHHHHHGAEFEQKLISEEDLG	M⁻¹ s⁻¹	4.96e+06
P3A1-[G4S]5-P3A1 homodimer with His6Myc tag (VNAR, genetic fusion of two VNAR domains; also called P3A1 dimer 6xHis myc; P3A1-P3A1) TRVDQTPRTATKETGESLTINCVLTDTSYGLYSTSWFRKNPGTTDWERMSIGGRYVESVNKGAKSFSLRIKDLTVADSATYYCKAREARHPWLRQWYDGAGTVLTVNGGGGSGGGGSGGGGSGGGGSGGGGSTRVDQTPRTATKETGESLTINCVLTDTSYGLYSTSWFRKNPGTTDWERMSIGGRYVESVNKGAKSFSLRIKDLTVADSATYYCKAREARHPWLRQWYDGAGTVLTVNQASGAHHHHHHGAEFEQKLISEEDL	M⁻¹ s⁻¹	1.86e+06

Consider the additional binder presented here.
Problem: kon for P3A1-P3A1-Ox-vcMMAE (VNAR, chain 1 pos 265 (C-terminal Gly, written G): carboxyl derivatised with O,O'-1,3-propanediylbishydroxylamine (C-terminal aminoxy), joined by oxime to benzaldehyde PEG2 vc PAB MMAE, linker as for m77) TRVDQTPRTATKETGESLTINCVLTDTSYGLYSTSWFRKNPGTTDWERMSIGGRYVESVNKGAKSFSLRIKDLTVADSATYYCKAREARHPWLRQWYDGAGTVLTVNGGGGSGGGGSGGGGSGGGGSGGGGSTRVDQTPRTATKETGESLTINCVLTDTSYGLYSTSWFRKNPGTTDWERMSIGGRYVESVNKGAKSFSLRIKDLTVADSATYYCKAREARHPWLRQWYDGAGTVLTVNQASGAHHHHHHGAEFEQKLISEEDLG ?
Result: 2.07e+06

Numbers sourced from patent US20210317204A1.
